# subject of test: DLL3 endogenously expressed on NCI-H82 cells (UniProt Q9NYJ7)
# Sequence (Q9NYJ7 27-618): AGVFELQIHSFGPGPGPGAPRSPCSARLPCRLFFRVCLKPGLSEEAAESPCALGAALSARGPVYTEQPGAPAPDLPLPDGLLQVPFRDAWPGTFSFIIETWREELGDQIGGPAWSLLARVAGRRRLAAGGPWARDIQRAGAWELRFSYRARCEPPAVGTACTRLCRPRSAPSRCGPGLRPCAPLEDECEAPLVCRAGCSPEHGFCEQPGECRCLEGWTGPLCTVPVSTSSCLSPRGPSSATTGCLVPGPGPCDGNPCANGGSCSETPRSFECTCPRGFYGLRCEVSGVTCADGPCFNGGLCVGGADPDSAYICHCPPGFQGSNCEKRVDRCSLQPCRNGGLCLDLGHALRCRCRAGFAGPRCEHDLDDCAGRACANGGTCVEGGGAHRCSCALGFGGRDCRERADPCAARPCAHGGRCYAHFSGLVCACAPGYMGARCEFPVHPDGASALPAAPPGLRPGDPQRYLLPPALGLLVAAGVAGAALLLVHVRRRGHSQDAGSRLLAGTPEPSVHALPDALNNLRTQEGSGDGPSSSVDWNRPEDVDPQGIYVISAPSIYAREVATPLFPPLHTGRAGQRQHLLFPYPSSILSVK
# assay procedure: FACS on NCI-H82 cells; antibody 20 nM
recorded metric: MFI
Numbers only.

| binder | MFI |
| --- | --- |
| Hab006VL4VH2-hFc (Fc fusion, part only; not given: Linker and human IgG1 Fc, not shown: a dimerising Fc or GST) chain, part: DIVMTQSPDSLAVSLGERATINCRATKSISKYLAWYQQKPGQTNKLLIFSGSTLQSGVPDRFSGSGSGTDFTLTISSLQAEDVAVYYCQQHHEYPYTFGGGTKVEIKEVQLVQSGAEVKKPGASVKVSCKASGYTFTSYWMHWVRQAPGQRLEWMGVIDPSDSLANYNQEFKGRVTLTVDTSASTAYMELSSLRSEDTAVYYCARDSTVVAPMDYWGQGTTVTVSS | 494 |
| Hab008L1H2a-hFc (scFv, part only; not given: VL-VH linker and human IgG1 Fc, V domains shown, not shown: another chain or arm of the molecule; a dimerising Fc or GST; small tags and cut ends) VL: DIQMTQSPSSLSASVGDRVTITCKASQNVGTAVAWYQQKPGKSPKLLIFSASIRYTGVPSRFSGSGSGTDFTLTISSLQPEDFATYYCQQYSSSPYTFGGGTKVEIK VH: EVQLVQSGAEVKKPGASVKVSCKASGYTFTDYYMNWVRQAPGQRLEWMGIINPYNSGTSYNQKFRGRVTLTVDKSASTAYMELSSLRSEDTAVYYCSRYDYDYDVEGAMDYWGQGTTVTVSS | 503 |
| Hab015VL5VH1a-hFc (scFv, part only; not given: scFv linker and human IgG1 Fc, V domains shown, not shown: another chain or arm of the molecule; a dimerising Fc or GST; small tags and cut ends) VL: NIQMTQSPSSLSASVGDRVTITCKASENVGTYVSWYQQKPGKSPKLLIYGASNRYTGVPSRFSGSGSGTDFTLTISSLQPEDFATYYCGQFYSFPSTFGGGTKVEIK VH: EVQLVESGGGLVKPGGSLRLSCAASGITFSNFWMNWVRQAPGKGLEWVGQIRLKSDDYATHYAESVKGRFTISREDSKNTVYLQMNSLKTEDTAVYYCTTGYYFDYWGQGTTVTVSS | 1100 |
| Hab015VL4VH5a-hFc (scFv, part only; not given: VL-VH linker and human IgG1 Fc, V domains shown, not shown: another chain or arm of the molecule; a dimerising Fc or GST; small tags and cut ends) VL: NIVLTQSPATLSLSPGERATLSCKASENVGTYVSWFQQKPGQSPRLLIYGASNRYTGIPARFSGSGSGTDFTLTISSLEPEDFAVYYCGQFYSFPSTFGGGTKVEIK VH: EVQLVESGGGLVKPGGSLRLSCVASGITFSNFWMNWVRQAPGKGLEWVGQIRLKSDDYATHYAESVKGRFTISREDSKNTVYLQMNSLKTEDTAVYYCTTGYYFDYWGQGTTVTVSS | 1190 |

Query: MFI; subject: Hab015VL4VH1a-hFc (scFv, part only; not given: scFv linker and human IgG1 Fc, V domains shown, not shown: another chain or arm of the molecule; a dimerising Fc or GST; small tags and cut ends) VL: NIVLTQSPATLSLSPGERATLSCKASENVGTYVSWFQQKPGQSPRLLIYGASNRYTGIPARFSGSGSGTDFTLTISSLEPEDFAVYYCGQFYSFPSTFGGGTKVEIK VH: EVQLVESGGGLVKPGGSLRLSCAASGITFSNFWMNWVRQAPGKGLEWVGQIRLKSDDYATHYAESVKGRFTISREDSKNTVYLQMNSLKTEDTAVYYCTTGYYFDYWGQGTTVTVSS
Response: 1200
